Cited source for all entries: ChEMBL document CHEMBL4038277

Biological target: Bromodomain-containing protein 4 (Homo sapiens)
Assay: Inhibition of recombinant human His-tagged BRD4-BD1 expressed in bacteria using biotinylated H4-tetraacetyl peptide as substrate after 20 mins by AlphaScreen assay
pKi: −log10 of the molar value.
Observation type: pKi

INSERT INTO results (input_smiles, subject_of_test, quantitative_result) VALUES
  ('CCS(=O)(=O)Nc1ccc(Oc2ccc(F)cc2F)c(-c2cn(C)c(=O)c3[nH]ccc23)c1', 'Bromodomain-containing protein 4 (Homo sapiens)', 7.82);

---

Biological target: Bromodomain-containing protein 4 (Homo sapiens)
Experiment: Inhibition of BRD4-BD2 (333 to 460 residues) (unknown origin) using histone H4 peptide as substrate preincubated for 15 mins followed by addition of substrate measured after 60 mins by AlphaScreen assay
pIC50: −log10 of the molar value.
Observation type: pIC50

INSERT INTO measurements (molecule, observation_type, quantitative_result) VALUES
  ('CCS(=O)(=O)Nc1ccc(Oc2ccc(F)cc2F)c(-c2cn(C)c(=O)c3[nH]ccc23)c1 [MIVEBRESIB]', 'pIC50', 7.16),
  ('CCS(=O)(=O)c1ccc(Oc2cccc(NCc3ccc(C#N)cc3)c2)c(-c2cn(C)c(=O)c3cncn23)c1', 'pIC50', 7.12),
  ('Cn1cc(-c2cc(S(C)(=O)=O)ccc2Oc2cccc(NCc3ccc(C#N)cc3)c2)n2cncc2c1=O', 'pIC50', 6.74),
  ('CC(=O)Nc1ccc(CNc2cccc(Oc3ccc(S(C)(=O)=O)cc3-c3cn(C)c(=O)c4cncn34)c2)cc1', 'pIC50', 6.74),
  ('CCS(=O)(=O)c1ccc(Oc2ccc(F)cc2F)c(-c2cn(C)c(=O)c3cncn23)c1', 'pIC50', 6.59),
  ('CCS(=O)(=O)c1ccc(Oc2cccc(NS(=O)(=O)c3cccs3)c2)c(-c2cn(C)c(=O)c3cncn23)c1', 'pIC50', 6.55),
  ('COc1cccc(CNc2cccc(Oc3ccc(S(C)(=O)=O)cc3-c3cn(C)c(=O)c4cncn34)c2)c1', 'pIC50', 6.72),
  ('Cn1cc(-c2cc(S(C)(=O)=O)ccc2Oc2cccc(NCc3ccc(F)cc3)c2)n2cncc2c1=O', 'pIC50', 6.49),
  ('CCS(=O)(=O)c1ccc(Oc2ccc(F)cc2)c(-c2cn(C)c(=O)c3cncn23)c1', 'pIC50', 6.66);

---

Tested on: MV4-11
Experiment: Antiproliferative activity against BRD4-sensitive human MV411 cells after 72 hrs by CCK8 assay
Assay type: functional, cell-based
Settings: MV4-11, 72 h
pIC50: −log10 of the molar value.
Observation type: pIC50

INSERT INTO assay_data (input_smiles, quantitative_result) VALUES
  ('Cn1cc(-c2cc(S(C)(=O)=O)ccc2Oc2cccc(NCc3ccc(F)cc3)c2)n2cncc2c1=O', 6.02),
  ('COc1cccc(CNc2cccc(Oc3ccc(S(C)(=O)=O)cc3-c3cn(C)c(=O)c4cncn34)c2)c1', 5.94),
  ('CCS(=O)(=O)c1ccc(Oc2ccc(F)cc2)c(-c2cn(C)c(=O)c3cncn23)c1', 6.11);
